This listing pairs binders with measured Phage binding ELISA, Anti-CD28 Fab signal.
Biological target: T1, Anti-CD28 Fab (SEQ ID NOs: 696, 697)
T1 construct: In the phage ELISA the Fab was biotinylated and captured on neutravidin coated plates
T1 sequence (VH, as listed by the source, chain 1 of 2): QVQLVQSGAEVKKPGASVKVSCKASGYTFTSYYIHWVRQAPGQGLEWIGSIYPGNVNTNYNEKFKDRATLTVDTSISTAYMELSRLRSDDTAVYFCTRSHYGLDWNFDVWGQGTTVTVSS
T1 sequence (VL, as listed by the source, chain 2 of 2): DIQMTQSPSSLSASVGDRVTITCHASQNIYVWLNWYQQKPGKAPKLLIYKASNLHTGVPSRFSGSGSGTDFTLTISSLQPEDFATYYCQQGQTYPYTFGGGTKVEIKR
Assay: phage ELISA; biotinylated anti-CD28 Fab on neutravidin plate, clonal phage supernatant, anti-M13 HRP detection;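 further: crude supernatants of single phage clones picked after panning were screened for binding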
Keep the answer to the number alone.

Observe how each entry below is paired with its result.
YCDGHIEEYRAKCL (Tested as clonal phage supernatant) [Phage-596]	2.21
YCDGHMPEYIAKCL (Tested as clonal phage supernatant) [Phage-604]	2.19
YCDGHRGEYLQKCL (Tested as clonal phage supernatant) [Phage-592]	2.22

Please look up its Phage binding ELISA, Anti-CD28 Fab signal: YCDGHAPEYMEKCM (Tested as clonal phage supernatant) [Phage-598]
2.21

Please look up its Phage binding ELISA, Anti-CD28 Fab signal: YCEGHAPEYMLKCL (Tested as clonal phage supernatant) [Phage-597]
2.21

Please look up its Phage binding ELISA, Anti-CD28 Fab signal: YCDGHLPEYLPKCL (Tested as clonal phage supernatant) [Phage-603]
2.19
